- run-description: Chronic DIO Mouse, first study: plasma and brain concentrations
- Assay type: in vivo
- test-settings: male, brain, DIO mice, 1 mg/kg daily oral, 2 Hours Post Dose, Day 16, (Std Dev), read-out: Brain concentration
quantity-name: concentration at 2 h (ng/g)
Please state the figure in ng/g; there is no need to write the unit.

Inquiry: Which concentration at 2 h is listed for O=c1cc(NC2CCN(S(=O)(=O)C(F)(F)F)CC2)c2cc(C(c3ccc(Cl)cc3)c3ccc(Cl)cc3)ccc2[nH]1 [Compound #44] ?
Reply text: 59.4

---

- tgt: UniProtKB P34972
- Sequence (P34972 whole entry): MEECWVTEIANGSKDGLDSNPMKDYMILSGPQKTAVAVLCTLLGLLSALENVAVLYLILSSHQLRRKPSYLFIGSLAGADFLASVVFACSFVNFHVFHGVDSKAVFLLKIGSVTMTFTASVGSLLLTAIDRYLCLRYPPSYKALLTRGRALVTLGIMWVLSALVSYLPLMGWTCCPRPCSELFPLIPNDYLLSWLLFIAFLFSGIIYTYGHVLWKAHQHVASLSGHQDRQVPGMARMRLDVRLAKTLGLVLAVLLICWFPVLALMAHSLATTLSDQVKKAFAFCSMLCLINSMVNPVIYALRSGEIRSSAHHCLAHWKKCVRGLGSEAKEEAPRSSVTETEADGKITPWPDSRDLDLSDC
- run-description: CB-2 in vitro cAMP assay (HTRF), inverse agonism
- Format: cell-based
- test-settings: mean where tested more than once
quantity-name: EC50

For orientation, consider the following solved cases.
Inquiry: Which measured EC50 belongs to Cn1c(=O)cc(NC2CCN(S(=O)(=O)C(F)(F)F)CC2)c2cc(C(c3ccc(Cl)cc3)c3ccc(Cl)cc3)ccc21 , tested on UniProtKB P34972?
Reply text: > 10 µM

Inquiry: Here is the next molecule: O=c1cc(NC2CCC(C(F)(F)F)CC2)c2cc(C(c3ccc(Cl)cc3)c3ccc(Cl)cc3)ccc2[nH]1 (stereo not shown)
Reply text: 3.7 µM

Inquiry: Here is the next molecule: CCOC(=O)CC(=O)N1CCC(Nc2cc(=O)[nH]c3ccc(C(c4ccc(Cl)cc4)c4ccc(Cl)cc4)cc23)CC1
Reply text: 3.65 µM

***
Inquiry: Which measured EC50 belongs to Clc1ccc(C(c2ccc(Cl)cc2)c2ccc3nccc(/C=C/c4ccccc4)c3c2)cc1 , tested on UniProtKB P34972?
Reply text: > 10 µM

Inquiry: Here is the next molecule: O=c1cc(NCc2cncc(C(F)(F)F)c2)c2cc(C(c3ccc(Cl)cc3)c3ccc(Cl)cc3)ccc2[nH]1
Reply text: 6.75 µM

Inquiry: Here is the next molecule: O=c1cc(NC2CCN(S(=O)(=O)c3ccccc3)CC2)c2cc(C(c3ccc(Cl)cc3)c3ccc(Cl)cc3)ccc2[nH]1
Reply text: > 10 µM

Inquiry: Here is the next molecule: COC(=O)Cc1ccc(Nc2cc(=O)[nH]c3ccc(C(c4ccc(Cl)cc4)c4ccc(Cl)cc4)cc23)cc1
Reply text: > 10 µM
